- test_system: FABP1 (liver, L-FABP) (Homo sapiens)
- Sequence (P07148 whole entry): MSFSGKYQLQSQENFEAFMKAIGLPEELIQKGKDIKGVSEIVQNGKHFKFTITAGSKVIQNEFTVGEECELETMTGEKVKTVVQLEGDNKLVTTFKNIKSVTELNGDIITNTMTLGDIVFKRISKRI
Consider the following molecules and their measured Ki readings.
I only need the number, in µM, no unit after it.

Please review the entries below; each comes with its answer.
INSERT INTO measurements (molecule, endpoint_name, result_value) VALUES
  ('CCCC1O[C@@H]2C[C@H]3[C@@H]4CCC5=CC(=O)C=C[C@]5(C)[C@H]4[C@@H](O)C[C@]3(C)[C@]2(C(=O)CO)O1 (some centres unmarked) [Budesonide]', 'Ki', 85.1),
  ('C[C@H]1C[C@@H]2[C@H]([C@@H](O)C[C@@]3(C)[C@H]2CC[C@]3(O)C(=O)CO)[C@@]2(C)C=CC(=O)C=C12 [Methylprednisolone]', 'Ki', 79.4),
  ('C[C@]12CCC(=O)C=C1CC[C@@H]1[C@@H]2C(=O)C[C@@]2(C)[C@H]1CC[C@]2(O)C(=O)CO [Cortisone]', 'Ki', 302);

Requested read-out: Ki. Entry: C[C@]12C=CC(=O)C=C1CC[C@@H]1[C@@H]2[C@@H](O)C[C@@]2(C)[C@H]1CC[C@]2(O)C(=O)CO [Prednisolone]
47.9

Requested read-out: Ki. Entry: C[C@]12C=CC(=O)C=C1CC[C@@H]1[C@@H]2C(=O)C[C@@]2(C)[C@H]1CC[C@]2(O)C(=O)CO [Prednisone]
288

Requested read-out: Ki. Entry: C[C@H]1C[C@H]2[C@@H]3CCC4=CC(=O)C=C[C@]4(C)[C@@]3(F)[C@@H](O)C[C@]2(C)[C@@]1(O)C(=O)CO [β-methasone]
91.2

Requested read-out: Ki. Entry: C[C@@H]1C[C@H]2[C@@H]3CCC4=CC(=O)C=C[C@]4(C)[C@@]3(F)[C@@H](O)C[C@]2(C)[C@@]1(O)C(=O)CO [Dexamethasone]
27.5

Requested read-out: Ki. Entry: C[C@]12CCC(=O)C=C1CC[C@@H]1[C@@H]2[C@@H](O)C[C@@]2(C)[C@H]1CC[C@]2(O)C(=O)CO [Hydrocortisone]
38.9
